- System: alcohol dehydrogenase
- assay summary: Effect of hormonal compounds on enzyme activity of alcohol dehydrogenase
- Assay type: biochemical
- Set-up: concentration or dose not given beside the values
- recorded conditions: Control = 100.0
measured attribute: Relative activity (%)

CC12CCC(=O)C=C1CCC1C2CCC2(C)C(O)CCC12 (centres unmarked) [Testerone]; 137%
C[C@]12CC[C@H](O)CC1=CC[C@@H]1[C@@H]2CC[C@]2(C)C(=O)CC[C@@H]12 [Dehydroepi-androsterone]; 200%
CC(=O)[C@H]1CC[C@H]2[C@@H]3CCC4=CC(=O)CC[C@]4(C)[C@H]3CC[C@]12C [Progesterone]; 120%
C[C@]12CCC(=O)C=C1CC[C@@H]1[C@@H]2CC[C@]2(C)C(=O)CC[C@@H]12 [4-Androsterone-3,17-dione]; 128%
C[C@]12CC[C@@H](O)C[C@@H]1CC[C@@H]1[C@@H]2CC[C@]2(C)C(=O)CC[C@@H]12 [Androsterone]; 119%

Hello, I would appreciate it if you could give Relative activity (%) for each entry below.
1. C[C@]12C[C@H](O)[C@H]3[C@@H](CCC4=CC(=O)CC[C@@]43C)[C@@H]1CC[C@@H]2C(=O)CO [Corticosterone]
2. C[C@]12CCC(=O)C=C1CC[C@@H]1[C@@H]2C(=O)C[C@@]2(C)[C@H]1CC[C@]2(O)C(=O)CO [Cortisone]
3. C[C@]12CC[C@H]3[C@@H](CCC4=CC(=O)CC[C@@]43C)[C@@H]1CC[C@@H]2C(=O)CO [Deoxycorticosterone]

["112%", "116%", "115%"]
